The values you see were collected from patent US7407939.

target system: protein kinase B, P31749
Sequence (P31749 whole entry): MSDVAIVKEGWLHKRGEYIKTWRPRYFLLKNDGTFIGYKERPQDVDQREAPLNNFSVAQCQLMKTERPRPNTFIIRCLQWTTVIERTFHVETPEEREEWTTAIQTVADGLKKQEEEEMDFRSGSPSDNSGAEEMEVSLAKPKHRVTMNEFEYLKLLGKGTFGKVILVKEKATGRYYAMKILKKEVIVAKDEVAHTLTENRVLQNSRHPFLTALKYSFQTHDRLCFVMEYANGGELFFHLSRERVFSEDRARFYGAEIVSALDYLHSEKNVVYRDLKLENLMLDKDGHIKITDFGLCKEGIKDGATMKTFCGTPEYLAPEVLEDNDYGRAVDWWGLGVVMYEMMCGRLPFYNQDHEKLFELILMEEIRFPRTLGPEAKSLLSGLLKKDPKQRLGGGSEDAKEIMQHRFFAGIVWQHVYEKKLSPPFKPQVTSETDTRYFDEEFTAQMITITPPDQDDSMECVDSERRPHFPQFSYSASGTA
measurement description: cell-based or functional assay; note: test concentration or dose not given here
Where no end group is shown, it is not given here. [ ]: non-standard residue; d: D form. hLeu = CC(C)CC[C@H](N)C(=O)O; GltNH2 = not defined here; Nva = CCC[C@H](N)C(=O)O; GlyNH2 = aminoglycine
readout: % Inhibition PKB I (%)

>  <binder>
RPR[Nva][GlyNH2][GltNH2][hLeu] (reading uncertain) [60006-16A]

>  <readout>
% Inhibition PKB I

>  <assay result>
42

$$$$

1: RPR[Nva][GlyNH2]A[hLeu] [60006-5A]
2: RPRTS[GlyNH2]F [60005-5]
Query :: Kindly identify which of 1 and 2 has the larger recorded % Inhibition PKB I value. The response must carry the label of the picked entry.
Result :: 2
